Target: RARβ (Homo sapiens)
Sequence (P10826 1-455): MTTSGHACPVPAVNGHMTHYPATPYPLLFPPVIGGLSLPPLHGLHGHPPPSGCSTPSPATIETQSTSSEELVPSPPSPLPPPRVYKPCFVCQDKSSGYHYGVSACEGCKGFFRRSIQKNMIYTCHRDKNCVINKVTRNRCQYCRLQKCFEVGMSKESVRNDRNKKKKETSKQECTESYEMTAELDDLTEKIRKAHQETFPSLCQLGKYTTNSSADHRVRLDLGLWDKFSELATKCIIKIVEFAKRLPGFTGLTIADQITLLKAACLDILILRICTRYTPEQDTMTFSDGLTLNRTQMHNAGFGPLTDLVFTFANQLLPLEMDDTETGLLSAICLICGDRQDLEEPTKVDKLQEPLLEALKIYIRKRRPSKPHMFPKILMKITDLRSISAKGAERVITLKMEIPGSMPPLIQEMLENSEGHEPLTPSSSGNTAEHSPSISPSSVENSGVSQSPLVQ
recorded metric: Kd (nM)
Your answer is read as nM, so omit the unit and give the number.

INSERT INTO results (compound, recorded_metric, display_unit, readout_number) VALUES
  ('CC1(C)CC=C(C#N)c2cc(C#Cc3ccc(C(=O)O)cc3)ccc21 [AGN 193090, reference compound]', 'Kd', 'nM', 34);

// moving on: another record for Kd
Asked: Look up and state reported Kd for CC(C)(C)C=C1CCC(C)(C)c2ccc(C#Cc3ccc(C(=O)O)cc3)cc21 [AGN 193459, reference compound]
Given back: 2

* * *

Sequence of the target: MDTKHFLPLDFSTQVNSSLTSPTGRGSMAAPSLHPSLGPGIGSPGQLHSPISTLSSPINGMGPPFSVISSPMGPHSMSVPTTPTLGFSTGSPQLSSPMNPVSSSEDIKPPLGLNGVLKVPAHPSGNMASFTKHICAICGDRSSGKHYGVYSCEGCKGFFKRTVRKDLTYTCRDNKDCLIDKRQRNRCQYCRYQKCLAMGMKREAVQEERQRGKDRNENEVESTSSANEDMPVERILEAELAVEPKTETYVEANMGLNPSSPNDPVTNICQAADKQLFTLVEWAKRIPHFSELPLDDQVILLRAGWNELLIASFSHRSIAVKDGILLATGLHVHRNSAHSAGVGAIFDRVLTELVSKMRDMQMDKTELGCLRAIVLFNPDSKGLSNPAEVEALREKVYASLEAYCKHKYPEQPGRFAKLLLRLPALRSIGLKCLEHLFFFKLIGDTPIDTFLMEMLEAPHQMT
pKd: −log10 of the molar value.
recorded metric: pKd

Asked: Look up and state reported pKd for CC(C)(C)c1cc(C(=O)Nc2cc(F)c(C(=O)O)c(F)c2)cc(C(C)(C)C)n1
Given back: < 6.00

* * *

Molecular target: RARα (Homo sapiens)
Sequence (P10276 whole entry, species assumed): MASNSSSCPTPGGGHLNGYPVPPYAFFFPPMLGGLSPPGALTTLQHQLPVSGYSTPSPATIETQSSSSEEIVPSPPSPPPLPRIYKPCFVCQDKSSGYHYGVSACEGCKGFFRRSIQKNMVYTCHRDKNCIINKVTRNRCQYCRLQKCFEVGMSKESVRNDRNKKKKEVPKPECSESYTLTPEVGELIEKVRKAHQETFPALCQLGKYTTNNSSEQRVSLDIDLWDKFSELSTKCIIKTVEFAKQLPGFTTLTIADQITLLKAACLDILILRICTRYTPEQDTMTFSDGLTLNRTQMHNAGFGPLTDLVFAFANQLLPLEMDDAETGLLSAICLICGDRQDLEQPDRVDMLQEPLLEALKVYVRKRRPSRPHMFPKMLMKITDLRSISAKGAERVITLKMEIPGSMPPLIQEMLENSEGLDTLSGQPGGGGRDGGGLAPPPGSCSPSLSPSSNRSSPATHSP
Experiment: Ligand binding assay, RARα
recorded metric: pKd
In simple prose, pKd is minus the logarithm base ten of a concentration in moles per litre.

INSERT INTO measurements (molecule, readout_number) VALUES
  ('CC1(C)CC=C(C#N)c2cc(C#Cc3ccc(C(=O)O)cc3)ccc21 [AGN 193090, reference compound]', 6.96);

Asked: Look up and state reported pKd for CC(C)(C)C=C1CCC(C)(C)c2ccc(C#Cc3ccc(C(=O)O)cc3)cc21 [AGN 193459, reference compound]
Given back: 8.22
